- Tested on: PRP4
- measurement_conditions: concentration: 1 μM, replicates: in singlicate; n = 1;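 also: KINOMEscan kinase panel screen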
assay_endpoint: %Inh (%)
Lab book: enter the figure in %, no units written.

Take a look at these entries with their results.
>>> test_value("[2H]C([2H])(c1cccc(C(F)(F)F)c1C)n1ccn2c(=O)nc(N3CCOCC3)cc12 [GSK2336394]")
18
>>> test_value("CCn1cnc2c(N)ncnc21 [GW345098]")
1
>>> test_value("COCCNC(=O)c1ccc(-c2cc(C(=O)NC3CC3)cc(F)c2C)cc1 [GW868318]")
0
>>> test_value("CCCCCc1nc2c(N)ncnc2n1CCCCC [SKF-97255]")
3
>>> test_value("CSc1ccc(-c2cc3ncnc(SCC(=O)O)c3s2)cc1")
0

API: the following record is the query input.
Entry O=C(NOCC1CC1)c1ccc(F)c(F)c1Nc1ccc(I)cc1Cl has what %Inh? 0

###

- Test system: IKK-alpha
- Construct: gene CHUK
- measurement_conditions: concentration: 1 μM, replicates: in singlicate; n = 1
// reported %Inh per item
Lab book: enter the figure in %, no units written.

Take a look at these entries with their results.
>>> test_value("COc1ccc(Nc2nccc(N3CCC(NC(=O)Nc4cc(C)ccc4C)C3)n2)cc1 (stereo not shown) [GSK1379741]")
0
>>> test_value("CCCCCc1nc2c(N)ncnc2n1CCCCC [SKF-97255]")
0
>>> test_value("N#Cc1ccc(-c2cc(-c3c[nH]nc3-c3ccccn3)ccn2)cc1 [GW693028]")
25
>>> test_value("COCCNC(=O)c1ccc(-c2cc(C(=O)NC3CC3)cc(F)c2C)cc1 [GW868318]")
36
>>> test_value("Nc1nccc(-c2c(-c3ccc(F)cc3)ncn2C2CCN(CC(F)(F)F)CC2)n1 [SB-236560]")
7

Entry COc1cc2c(cc1OCCN1CCN(C)CC1)ncc1c3ccc(C#N)cc3[nH]c21 has what %Inh? 44

###

- Tested on: EPHB6
- measurement_conditions: concentration: 1 μM, replicates: in singlicate; n = 1
assay_endpoint: %Inh

Take a look at these entries with their results.
>>> test_value("Cc1nnc(-c2ccc3ncc(-c4ccc(S(C)=O)cc4)n3c2)o1 (stereo not drawn)")
"13%"
>>> test_value("O=C(Nc1n[nH]c2cc(-c3cccc(F)c3)ccc12)C1CC1")
"14%"
>>> test_value("CCc1nc(-c2cccc(C)c2)c(-c2ccnc(NCc3ccccc3)c2)s1")
"5%"
>>> test_value("Cc1cccc(-c2nc(-c3ccc(S(C)(=O)=O)cc3)sc2-c2ccncc2)c1")
"46%"
>>> test_value("COc1cc(Nc2nccc(N3CCC(NC(=O)c4cccc(NC(C)=O)c4)C3)n2)cc(OC)c1OC (stereo not drawn)")
"78%"

Entry CC(=O)Nc1ccc(COc2ccc(Nc3ccnc4cc(-c5ccccn5)ccc34)cc2)cc1.Cl has what %Inh? 53%

Entry to check: CNc1ncnc2[nH]ncc12 0%

Entry to check: COc1cc2c(cc1OC[C@@H](O)CO)ncc1c3ccc(C#N)cc3[nH]c21 44%

Entry to check: Cc1cccc(-c2nc(Nc3ccc4ncsc4c3)c3ccccc3n2)n1 0%

###

- Test system: CAMK2G
- measurement_conditions: concentration: 1 μM, replicates: in singlicate; n = 1
// reported %Inh per item
Lab book: enter the figure in %, no units written.

>>> test_value("COc1cc2c(cc1OC[C@@H](O)CO)ncc1c3ccc(C#N)cc3[nH]c21")
61
>>> test_value("O=c1cc(N2CCOCC2)nc2n(Cc3cccc4ccccc34)ccn12")
0
>>> test_value("Cl.Oc1cccc(Nc2ccnc3cc(-c4ccncc4)ccc23)c1")
29

Entry NS(=O)(=O)CCc1cccc(Nc2nccc(-c3c(-c4cccc(NC(=O)c5c(F)cccc5F)c4)nn4ccccc34)n2)c1 has what %Inh? 14

Entry to check: CN1c2ccc(CNc3ccc(F)cc3)cc2-c2c(cnn2C)S1(=O)=O 0

Entry to check: CN(C(=O)c1ccc(-c2cc(-c3c[nH]nc3-c3ccccn3)ccn2)cc1)C1CCOCC1 17

Entry to check: Cc1nnc(-c2ccc3ncc(-c4ccc(S(C)=O)cc4)n3c2)o1 (stereo not shown) 27

###

// reported %Inh per item
- System: TGFBR2
- measurement_conditions: concentration: 1 μM, replicates: in singlicate; n = 1
Lab book: enter the figure in %, no units written.

Take a look at these entries with their results.
>>> test_value("O=C(NCCNc1ccnc(Nc2ccc(F)cc2)n1)Nc1ccccc1F")
0
>>> test_value("N#Cc1c(N2CCOCC2)sc(-c2ccn[nH]2)c1-c1ccc(Cl)cc1")
0
>>> test_value("COc1cc(Nc2nccc(N3CCC(NC(=O)c4cccc(NC(C)=O)c4)C3)n2)cc(OC)c1OC (stereo not drawn)")
0
>>> test_value("COc1ccc(Nc2ncc(C#N)c(Nc3ccccc3C(N)=O)n2)cc1N1CCN(C)CC1.Cl")
27
>>> test_value("O=C(Nc1n[nH]c2cc(-c3cccc(F)c3)ccc12)C1CC1")
0
>>> test_value("COc1ccc(COc2cc(-n3cnc4ccccc43)sc2C(N)=O)cc1")
0

Entry Cc1c2ccc(N(C)c3ccnc(Nc4cccc(S(N)(=O)=O)c4)n3)cc2nn1Cc1ccccc1.Cl.Cl has what %Inh? 63

Entry to check: O=c1cc(N2CCOCC2)nc2n(Cc3cccc(Cl)c3Cl)c(C3CC3)nn12 10

Entry to check: CN(C(=O)c1ccc(-c2cc(-c3c[nH]nc3-c3ccccn3)ccn2)cc1)C1CCOCC1 21

Entry to check: COc1cc2c(cc1OC[C@@H](O)CO)ncc1c3ccc(C#N)cc3[nH]c21 0

Entry to check: Cc1cccc(-c2nc(Nc3ccc4ncsc4c3)c3ccccc3n2)n1 0

Entry to check: COc1ccc(CNC(=O)NC2CCN(c3ccnc(Nc4ccc(OC)cc4)n3)C2)cc1 (stereo not drawn) 0

Entry to check: Cc1cccc(Cn2ccn3c(=O)cc(N4CCOCC4)nc23)c1 0

Entry to check: O=C1Cc2cc(Nc3nc(NCc4cccc(S(=O)(=O)C(F)(F)F)c4)ncc3C(F)(F)F)ccc2N1 2

Entry to check: Cc1ccc(C(=O)NCC(N)=O)cc1-n1c(C)cc(OCc2ccc(F)cc2F)c(Br)c1=O 26

###

- Test system: SIK
- measurement_conditions: concentration: 1 μM, replicates: in singlicate; n = 1
// reported %Inh per item
Lab book: enter the figure in %, no units written.

>>> test_value("c1ccc(-c2n[nH]cc2-c2ccnc3ccccc23)nc1")
8
>>> test_value("COc1cc2c(cc1OC[C@@H](O)CO)ncc1c3ccc(C#N)cc3[nH]c21")
21
>>> test_value("C[C@@H](Oc1cc(-n2cnc3ccc(NC(=O)NC(C)(C)C)cc32)sc1C(N)=O)c1ccccc1Cl")
0
>>> test_value("Cc1c(Cn2c(C)nn3c(=O)cc(N4CCOC(C)C4)nc23)cccc1C(F)(F)F (centres unmarked)")
0
>>> test_value("NCC(NC(=O)c1cc(-c2cn[nH]c2)c(-c2ccnc3[nH]ccc23)s1)c1ccccc1.O=C(O)C(F)(F)F.O=C(O)C(F)(F)F (centres unmarked)")
0

Entry Cc1cccc(-c2nc(Nc3ccc4ncsc4c3)c3ccccc3n2)n1 has what %Inh? 10

Entry to check: COc1ccc(CNC(=O)NC2CCN(c3ccnc(Nc4ccc(OC)cc4)n3)C2)cc1 (centres unmarked) 1

Entry to check: NS(=O)(=O)CCc1cccc(Nc2nccc(-c3c(-c4cccc(NC(=O)c5c(F)cccc5F)c4)nn4ccccc34)n2)c1 94.7

Entry to check: COc1ccc(Nc2nccc(N3CCC(NC(=O)Nc4cccc(C(C)=O)c4)C3)n2)cc1 (centres unmarked) 0

Entry to check: Cc1nnc(-c2ccc3ncc(-c4ccc(S(C)=O)cc4)n3c2)o1 (centres unmarked) 9

Entry to check: NS(=O)(=O)c1cccc(-c2ccc3ncc(N4CCOCC4)nc3c2)c1 0

Entry to check: COc1ccc(S(=O)(=O)NC2CCN(c3cc(C)nc(Nc4cccc(C#N)c4)n3)CC2)cc1.O=C(O)C(F)(F)F 0

Entry to check: O=c1cc(N2CCOCC2)nc2n(Cc3cccc(C(F)(F)F)c3)ccn12 0

Entry to check: O=c1cc(N2CCOCC2)nc2n(Cc3cccc(Cl)c3Cl)c(C3CC3)nn12 0

Entry to check: Cc1c2ccc(N(C)c3ccnc(Nc4cccc(S(N)(=O)=O)c4)n3)cc2nn1Cc1ccccc1.Cl.Cl 72

Entry to check: COc1ccc(Nc2nccc(N3CCC(NC(=O)Nc4cc(C)ccc4C)C3)n2)cc1 (centres unmarked) 0

Entry to check: Cc1nnc(-c2ccc(C)c(-c3ccc(C(=O)Nc4ccc(NS(C)(=O)=O)cc4)cc3)c2)o1 0

Entry to check: Cc1cccc(-c2nc(-c3ccc(S(C)(=O)=O)cc3)sc2-c2ccncc2)c1 12

Entry to check: N#Cc1ccc(-c2cc(-c3c[nH]nc3-c3ccccn3)ccn2)cc1 0

Entry to check: c1ccc(-c2cc(-c3c[nH]nc3-c3ccccn3)ccn2)cc1 0

Entry to check: O=c1cc(N2CCOCC2)nc2n(Cc3cccc4ccccc34)ccn12 0

Entry to check: COC(=O)Nc1nc2cc(Oc3ccc(NC(=O)Nc4cc(F)ccc4F)cc3)ccc2[nH]1.Cl 0

Entry to check: Cl.Oc1cccc(Nc2ccnc3cc(-c4ccncc4)ccc23)c1 72

Entry to check: CNc1ncnc2[nH]ncc12 0
